Parameter: Kd. Scope: all listed entries.
# tgt: AmtB–GlnK interaction (Escherichia coli, UniProt P69681)
# Construct: pelB signal peptide (N, cleaved yes); 10x His-tag (N, cleaved yes); made in house; host or cells: AmtB: Escherichia coli C41(DE3), pET15b; stGlnK: Escherichia coli ArcticExpress (DE3) RIL, pET28b
# Sequence (P0AC55 whole entry Y51F): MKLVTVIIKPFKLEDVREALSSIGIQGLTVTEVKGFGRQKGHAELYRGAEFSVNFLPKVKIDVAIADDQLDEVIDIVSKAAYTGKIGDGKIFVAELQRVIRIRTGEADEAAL
# Sequence (P69681 23-428): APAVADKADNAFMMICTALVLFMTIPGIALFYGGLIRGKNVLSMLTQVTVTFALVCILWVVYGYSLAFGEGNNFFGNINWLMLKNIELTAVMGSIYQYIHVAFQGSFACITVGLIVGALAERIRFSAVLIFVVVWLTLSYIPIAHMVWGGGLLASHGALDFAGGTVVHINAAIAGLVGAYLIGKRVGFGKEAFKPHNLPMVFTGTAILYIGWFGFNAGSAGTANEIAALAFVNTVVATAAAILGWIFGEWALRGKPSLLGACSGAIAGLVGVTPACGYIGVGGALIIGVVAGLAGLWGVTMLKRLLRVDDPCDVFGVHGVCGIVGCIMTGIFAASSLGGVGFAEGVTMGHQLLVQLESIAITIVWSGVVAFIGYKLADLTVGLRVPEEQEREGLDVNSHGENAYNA
# method: Native MS lipid titration, GlnK binding to apo or lipid-bound AmtB; coupling factors (allosteric modulation)
# measurement.context: KD,AG, GlnK binding apo AmtB, from global fit of the titration with the named lipid, 50 µM ADP, 298 K
// units = nM; emit number, no label

Illustrative cases are given below, each with its answer.
CCCCCCCC/C=C\CCCCCCCC(=O)O[C@H](COC(=O)CCCCCCCCCCCCCCC)COP(=O)(O)OCC(O)CO (stereo partly shown) : 540
CCCCCCCC/C=C\CCCCCCCC(=O)O[C@H](COC(=O)CCCCCCCCCCCCCCC)COP(=O)(O)OC[C@H](N)C(=O)O : 500
CCCCCCCCCCCCCCCC(=O)OC[C@H](COP(=O)(O)OCC(O)CO)OC(=O)CCCCCCCCCCCCCCC (stereo partly shown) : 521

Let us move to another entry and its Kd.
Which Kd is listed for CCCCCCCC/C=C\CCCCCCCC(=O)O[C@H](COC(=O)CCCCCCCCCCCCCCC)COP(=O)([O-])OCC[N+](C)(C)C ?
486

----------
Parameter: pKd. Scope: all listed entries.
# tgt: AmtB–GlnK interaction (Escherichia coli)
# Construct: pelB signal peptide (N, cleaved yes); 10x His-tag (N, cleaved yes); made in house; host or cells: AmtB: Escherichia coli C41(DE3), pET15b; stGlnK: Escherichia coli ArcticExpress (DE3) RIL, pET28b
# method: Native MS lipid titration, GlnK binding to apo or lipid-bound AmtB; coupling factors (allosteric modulation)
# measurement.context: KD,AL3G, GlnK binding AmtB bound to 3 lipids, 50 µM ADP, 298 K
# Description: A stock of ADP was prepared by dissolving the ammonium salt form of ADP in water followed by adjusting the pH with ammonium hydroxide to 7.0. Serial dilutions into MS buffer (200 mM ammonium acetate, 0.5% C8E4, and pH adjusted to 7.4 with ammonium hydroxide) supplemented with 5 mM BME was performed to prepare ADP at certain concentrations. Phospholipids were prepared as previously described. […] Phospholipid concentration was determined by phosphorus analysis.
Hey, just a heads up that pKd is the negative log base 10 of the concentration in molar.

CCCCCCCC/C=C\CCCCCCCC(=O)O[C@H](COC(=O)CCCCCCCCCCCCCCC)COP(=O)(O)O : 6.12
CCCCCCCC/C=C\CCCCCCCC(=O)OC[C@H](COP(=O)(O)OCCN)OC(=O)CCCCCCC/C=C\CCCCCCCC [DOPE (cis)] : 6.69
CCCCCCCCCCCCCC(=O)OC[C@H](COP(=O)(O)OCC(O)CO)OC(=O)CCCCCCCCCCCCC (stereo partly drawn) : 6.28

Which pKd is listed for CCCCCCCC/C=C\CCCCCCCC(=O)O[C@H](COC(=O)CCCCCCCCCCCCCCC)COP(=O)(O)OCC(O)CO (stereo partly drawn) ?
6.50

Please answer likewise for CCCCCCCCCCCC(=O)OC[C@H](COP(=O)(O)OCC(O)CO)OC(=O)CCCCCCCCCCC (stereo partly drawn)
6.57

Please answer likewise for CCCCCCCCCCCCCCCC(=O)OC[C@H](COP(=O)(O)OCC(O)CO)OC(=O)CCCCCCCCCCCCCCC (stereo partly drawn)
6.78

Please answer likewise for CCCCCCCC/C=C\CCCCCCCC(=O)O[C@H](COC(=O)CCCCCCCCCCCCCCC)COP(=O)(O)OC[C@H](N)C(=O)O
6.44

Please answer likewise for CCCCCCCC/C=C\CCCCCCCC(=O)O[C@H](COC(=O)CCCCCCCCCCCCCCC)COP(=O)(O)OCCN
6.86

Please answer likewise for CCCCCCCC/C=C\CCCCCCCC(=O)O[C@H](COC(=O)CCCCCCCCCCCCCCCCC)COP(=O)(O)OCCN
6.67
